Documented TGI across a set of molecules
# System: T-47D breast
# Assay overview: NCI tumour cell line growth inhibition, 48 h
Property name: TGI

[[record]]
molecule = "CC(=O)OC1CC2CCC1(C)C2(C)C (stereo unspecified)"
result = "> 100 µM"

[[record]]
molecule = "c1ccc(C2SCC3=Nc4ccccc4CN32)cc1 (stereo unspecified)"
result = "> 100 µM"

[[record]]
molecule = "NNC(=O)CNC(=O)CSc1nnc(COc2ccc(Cl)cc2)n1-c1ccccc1"
result = "> 100 µM"

[[record]]
molecule = "COC(=O)NCCc1[nH]nc2c1C(=O)C=C(Nc1ccccc1)C2=O"
result = "> 100 µM"

[[record]]
molecule = "CC(=O)Nc1ccc(CNc2cc(=O)[nH]c(=O)[nH]2)cc1"
result = "> 100 µM"

[[record]]
molecule = "COC(=O)CCC(=O)c1c(C)[nH]c(/C=C2\\N=C(c3ccc[nH]3)C=C2OC)c1C"
result = "4.09 µM"

